Where these numbers come from: PubChem BioAssay (NCI)

Tested on: SK-MEL-28 melanoma
assayRemarks: NCI-60 one-dose screen, 48 h (100 = growth as untreated, 0 = no growth, -100 = all killed)
conditionParameters: 10 µM unless noted
Compounds without any hit were thinned out: in the full panel of roughly 83,000, 20% have a hit.
Can you tell me growth for the items I'm about to list?
Give bare numbers, in %.

CCCCCCCCCCCC(=O)C(CCCCCCCCCC)C(=O)Nc1ccccc1 (centres undefined) | 108
CN1CCCC1=Nc1ccccc1 | 96.6
COc1cc(-c2nc3occn3c2-c2ccnc(NCCNS(=O)(=O)c3ccc(Cl)cc3)n2)ccc1F | 102
CNC(=O)NCC1OC(n2cnc3c(NC(=O)Nc4ccccc4)ncnc32)C(O[Si](C)(C)C(C)(C)C)C1O[Si](C)(C)C(C)(C)C (centres undefined) | 60
O=C(Nc1nc2ccc(C(=O)N3CCN(c4ccc(Cl)c(Cl)c4)CC3)cc2s1)c1ccc(NCCc2ccccc2)c([N+](=O)[O-])c1 | 105
CC(=O)Nc1ccc(S(=O)(=O)NC2CCCCC2)cc1 | 98.3
O=C(CN1CCOCC1)Nc1ccc2ncnc(Nc3ccc(OCc4cccc(F)c4)c(Cl)c3)c2c1 | 77
COc1ccccc1N1CCN(C(=O)c2ccc3nc(NC(=O)c4ccc(NCCc5ccccc5)c([N+](=O)[O-])c4)sc3c2)CC1 | 91.5

Next molecule, growth to be filled in.
Need growth, item COc1cccc(C(Cc2ccccc2)Nc2ccccc2)c1OC (centres undefined)
107
